protocol-details: Pharmacokinetic in BALB-c female mice, i.v. and oral
Assay type: in vivo
settings: mouse, iv, I.V, dose 1.00 mg/Kg, plasma
measured-endpoint: AUC(0-inf)

Record COc1ncc2cc1NS(=O)(=O)c1cccc(c1)C(=O)N1CCc3ccc(cc3C1)-c1ccnc3ccc-2cc13 [compound 39] . Reported AUC(0-inf): 4460 ng·h/mL

###

experimental-system: PIM-1 (Homo sapiens, UniProt P11309)
Construct: histidine tag (C); made in house
Sequence (P11309 whole entry): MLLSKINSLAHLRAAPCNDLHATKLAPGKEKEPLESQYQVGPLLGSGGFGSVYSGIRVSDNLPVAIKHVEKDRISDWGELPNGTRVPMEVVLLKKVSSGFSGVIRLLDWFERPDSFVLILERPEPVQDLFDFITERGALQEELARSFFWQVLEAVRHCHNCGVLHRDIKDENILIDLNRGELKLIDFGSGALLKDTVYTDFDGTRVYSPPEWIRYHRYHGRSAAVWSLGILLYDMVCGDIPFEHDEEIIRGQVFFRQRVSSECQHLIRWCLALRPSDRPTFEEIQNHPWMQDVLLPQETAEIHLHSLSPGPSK
protocol-details: PIM-1 biochemical assay (ADP Hunter)
settings: read-out: PIM-1 activity (semi-quantitative IC50)
pIC50: −log10 of the molar value.
measured-endpoint: pIC50

molecule	experimental-system	pIC50
COc1ncc2cc1NS(=O)(=O)c1ccc(Cl)c(c1)C(=O)NCC1=CC=C(S1)c1ccnc3c1SC2=C3C [compound 102]	PIM-1 (Homo sapiens, UniProt P11309)	> 7.00
COCCOc1ccc2cc1C(=O)NCC1=CC=C(S1)c1ncnc3c1SC(=C3C)c1cnc(OC)c(c1)NS2(=O)=O [compound 95]	PIM-1 (Homo sapiens, UniProt P11309)	6.00 to 7.00
COc1ccc2cc1C(=O)NCC1=CC=C(S1)c1ncnc3c1SC(=C3C)c1cnc(OC)c(c1)NS2(=O)=O [compound 100]	PIM-1 (Homo sapiens, UniProt P11309)	> 7.00
O=C1NCc2cccc(c2)-c2cnn3ccc(nc23)-c2cnc(O)c(c2)NS(=O)(=O)c2cccc1c2 [compound 85]	PIM-1 (Homo sapiens, UniProt P11309)	< 6.00
COc1ncc2cc1NS(=O)(=O)c1cccc(c1)C(=O)NCC1=CC=C(S1)c1ccnc3c1SC2=C3C [compound 101]	PIM-1 (Homo sapiens, UniProt P11309)	> 7.00

Turning now to a further record.
# COc1ncc2cc1NS(=O)(=O)c1cccc(c1)C(=O)NC[C@@H]1CN(CCO1)c1ncnc3c1SC2=C3C [compound 91] with PIM-1 (Homo sapiens, UniProt P11309): pIC50 is > 7.00

###

A collection of compounds and their measured IC50
experimental-system: mTOR (Homo sapiens)
Construct: purchased Invitrogen PV4754
Sequence (P42345 1360-2549 limits assumed): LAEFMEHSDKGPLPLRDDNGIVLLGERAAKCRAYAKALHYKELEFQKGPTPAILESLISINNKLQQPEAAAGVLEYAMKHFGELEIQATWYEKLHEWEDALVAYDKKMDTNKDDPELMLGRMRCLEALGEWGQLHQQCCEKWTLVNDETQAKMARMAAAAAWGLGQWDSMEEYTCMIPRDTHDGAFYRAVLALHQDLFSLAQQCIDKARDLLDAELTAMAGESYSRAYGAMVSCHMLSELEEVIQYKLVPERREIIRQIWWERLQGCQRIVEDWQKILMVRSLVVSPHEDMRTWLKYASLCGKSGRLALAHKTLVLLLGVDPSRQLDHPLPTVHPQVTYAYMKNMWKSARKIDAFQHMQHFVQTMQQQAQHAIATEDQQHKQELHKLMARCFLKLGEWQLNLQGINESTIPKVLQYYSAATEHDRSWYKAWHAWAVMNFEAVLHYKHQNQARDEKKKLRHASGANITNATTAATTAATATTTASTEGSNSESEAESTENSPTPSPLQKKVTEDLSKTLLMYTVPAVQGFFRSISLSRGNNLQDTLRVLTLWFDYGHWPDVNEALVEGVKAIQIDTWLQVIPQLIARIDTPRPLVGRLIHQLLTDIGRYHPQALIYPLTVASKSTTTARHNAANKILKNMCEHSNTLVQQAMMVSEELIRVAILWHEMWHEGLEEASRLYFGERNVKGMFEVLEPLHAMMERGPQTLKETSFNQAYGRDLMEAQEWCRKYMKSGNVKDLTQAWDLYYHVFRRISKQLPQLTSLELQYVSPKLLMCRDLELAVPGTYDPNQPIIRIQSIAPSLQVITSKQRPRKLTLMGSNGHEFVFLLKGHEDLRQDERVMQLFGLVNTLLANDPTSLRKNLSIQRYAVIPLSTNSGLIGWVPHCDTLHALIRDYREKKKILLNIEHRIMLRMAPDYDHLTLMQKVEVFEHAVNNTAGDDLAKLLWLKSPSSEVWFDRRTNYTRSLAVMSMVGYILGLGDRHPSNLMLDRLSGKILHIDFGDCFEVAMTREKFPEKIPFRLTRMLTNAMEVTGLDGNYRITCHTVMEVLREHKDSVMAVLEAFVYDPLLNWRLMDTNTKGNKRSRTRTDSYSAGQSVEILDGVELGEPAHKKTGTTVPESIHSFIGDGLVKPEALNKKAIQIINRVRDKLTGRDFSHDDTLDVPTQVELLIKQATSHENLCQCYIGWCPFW
protocol-details: mTOR assay (LanthaScreen kinase activity assay)
Type: biochemical
settings: read-out: mTOR activity, IC50 (semi-quantitative class)

Field: example entries. Status: answers known.
entry-smiles	experimental-system	test-result
COc1ncc2cc1NS(=O)(=O)c1cccc(c1)C(=O)NC[C@H]1CN(CCO1)c1ncnc3c1SC2=C3	mTOR (Homo sapiens)	> 1000 nM
COc1ncc2cc1NS(=O)(=O)c1cccc(c1)C(=O)NCc1ccc(F)c(c1)-c1ccnc3ccc-2cc13	mTOR (Homo sapiens)	100 to 1000 nM
COc1ncc2cc1NS(=O)(=O)c1cccc(c1)C(=O)NCc1cncc(c1)-c1ncnc3c1SC2=C3C	mTOR (Homo sapiens)	100 to 1000 nM
COc1ncc2cc1NS(=O)(=O)c1cccc(c1)C(=O)NCc1cncc(c1)-c1ccnc3c1SC2=C3	mTOR (Homo sapiens)	> 1000 nM
COc1ncc2cc1NS(=O)(=O)c1cccc(c1)C(=O)NCc1cncc(c1)-c1ccnc3ccc-2nc13	mTOR (Homo sapiens)	< 100 nM
COc1ncc2cc1NS(=O)(=O)c1cccc(c1)C(=O)NCc1cncc(c1)-c1ncnc3c1SC2=C3	mTOR (Homo sapiens)	> 1000 nM

Record COc1ncc2cc1NS(=O)(=O)c1cccc(c1)C(=O)NCCN1CC=C(CC1)c1cnc3ccc-2cn13 . Reported IC50: < 100 nM

Record COc1ncc2cc1NS(=O)(=O)c1cccc(c1)C(=O)NCCn1cc(cn1)-c1ncnc3c1SC2=C3C . Reported IC50: 100 to 1000 nM

Record CC(C)Oc1ncc2cc1NS(=O)(=O)c1cccc(c1)C(=O)NCCn1cc(cn1)-c1ncnc3c1SC2=C3 . Reported IC50: > 1000 nM

Record COc1ncc2cc1NS(=O)(=O)c1cccc(c1)C(=O)NCc1cccc(c1)-c1cnc3ccc-2nn13 . Reported IC50: < 100 nM

Record COc1ncc2cc1NS(=O)(=O)c1cccc(c1)C(=O)NCC1CCN(CC1)c1ncnc3ccc-2cc13 . Reported IC50: < 100 nM

Record COc1ncc2cc1NS(=O)(=O)c1cccc(c1)C(=O)NCc1cncc(c1)-c1ccnc3ccc-2cc13 . Reported IC50: < 100 nM

Record O=C1NCc2cncc(c2)-c2cnc3sc(nn23)-c2cnc(O)c(c2)NS(=O)(=O)c2cccc1c2 . Reported IC50: > 1000 nM
